# PROCEDURE DETAILS: Inhibition of rice alpha-glucosidase assessed as release of p-nitrophenol using p-nitrophenyl glycoside as substrate by spectrometric assay
# Design: species or system Oryza sativa
MEASURED QUANTITY: IC50 (µM)
Output spec: scalar in µM, unitless text.

{"CHEMICAL STRING": "CCCCCCCCC[C@]1(CO)NC[C@@H](O)[C@@H]1O", "UNIT DESCRIPTOR": "µM", "IC50": 727}
{"CHEMICAL STRING": "COc1cccc([C@]2(CO)NC[C@@H](O)[C@@H]2O)c1", "UNIT DESCRIPTOR": "µM", "IC50": 758}

Query: Using the record for `CCCC[C@]1(CO)NC[C@@H](O)[C@@H]1O` , report its IC50.
Result: 59

Query: Can you look up the measured IC50 of `OC[C@]1(c2ccc(O)cc2)NC[C@H](O)[C@H]1O` for me?
Result: 285

Query: Consider the molecule shown here: `OC[C@@]1(c2ccc(F)cc2)NC[C@@H](O)[C@@H]1O` What is its recorded IC50?
Result: 646

Query: Given `OC[C@@]1(c2ccc(O)cc2)NC[C@@H](O)[C@@H]1O` , state its recorded IC50.
Result: 337

Query: Any idea what its IC50 is? The molecule is `Cc1ccc([C@@]2(CO)NC[C@H](O)[C@H]2O)cc1`
Result: 697

Query: Bench note: what IC50 did `OC[C@]1(c2cccc(F)c2)NC[C@H](O)[C@H]1O` show?
Result: 817

###

IC50 values for the compounds below.
# ASSAYED SYSTEM: Lysosomal alpha-glucosidase (Homo sapiens)
# PROCEDURE DETAILS: Inhibition of human lysosomal alpha glucosidase assessed as release of p-nitrophenol using p-nitrophenyl glycoside as substrate by spectrometric assay
Only the number, expressed in µM, is required.

The following compounds have reported results that may help.
{"CHEMICAL STRING": "COc1ccc([C@@]2(CO)NC[C@H](O)[C@H]2O)cc1", "ASSAYED SYSTEM": "Lysosomal alpha-glucosidase (Homo sapiens)", "MEASURED QUANTITY": "IC50", "MEASURED": 601}
{"CHEMICAL STRING": "CCCC[C@@]1(CO)NC[C@H](O)[C@H]1O", "ASSAYED SYSTEM": "Lysosomal alpha-glucosidase (Homo sapiens)", "MEASURED QUANTITY": "IC50", "MEASURED": 2.4}

Now take the following compound into account.
Query: Sample `OC[C@]1(c2cccc(F)c2)NC[C@H](O)[C@H]1O` — what was its IC50?
Result: 491

###

# ASSAYED SYSTEM: Sucrase-isomaltase, intestinal (Rattus norvegicus)
# Sequence (P23739 1-1013 limits assumed): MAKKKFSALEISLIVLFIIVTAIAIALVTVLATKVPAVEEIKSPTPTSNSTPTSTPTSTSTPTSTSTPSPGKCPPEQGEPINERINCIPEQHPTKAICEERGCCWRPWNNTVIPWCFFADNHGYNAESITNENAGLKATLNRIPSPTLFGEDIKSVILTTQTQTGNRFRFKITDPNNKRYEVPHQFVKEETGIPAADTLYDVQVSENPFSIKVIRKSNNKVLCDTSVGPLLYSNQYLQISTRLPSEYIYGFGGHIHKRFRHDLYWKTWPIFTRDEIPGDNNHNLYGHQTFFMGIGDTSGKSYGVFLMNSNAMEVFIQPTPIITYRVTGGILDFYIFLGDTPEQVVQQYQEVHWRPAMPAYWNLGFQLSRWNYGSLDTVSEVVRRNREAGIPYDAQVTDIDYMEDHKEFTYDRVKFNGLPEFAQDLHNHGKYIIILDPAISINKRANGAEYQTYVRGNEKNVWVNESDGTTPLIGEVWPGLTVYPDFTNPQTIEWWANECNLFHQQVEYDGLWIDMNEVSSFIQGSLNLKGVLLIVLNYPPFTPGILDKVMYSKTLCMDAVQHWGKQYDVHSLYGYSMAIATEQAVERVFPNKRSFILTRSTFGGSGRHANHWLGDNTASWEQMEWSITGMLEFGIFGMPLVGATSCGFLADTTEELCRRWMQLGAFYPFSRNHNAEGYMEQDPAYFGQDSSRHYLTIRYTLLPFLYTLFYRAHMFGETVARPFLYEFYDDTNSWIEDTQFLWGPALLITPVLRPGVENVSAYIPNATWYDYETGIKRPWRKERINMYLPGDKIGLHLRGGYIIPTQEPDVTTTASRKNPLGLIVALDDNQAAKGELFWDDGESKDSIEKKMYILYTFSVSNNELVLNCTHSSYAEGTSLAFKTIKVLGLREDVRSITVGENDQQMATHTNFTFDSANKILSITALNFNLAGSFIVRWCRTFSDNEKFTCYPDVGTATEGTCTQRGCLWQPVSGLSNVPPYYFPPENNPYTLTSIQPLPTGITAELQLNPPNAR
# Sequence (P23739 1014-1841 limits assumed): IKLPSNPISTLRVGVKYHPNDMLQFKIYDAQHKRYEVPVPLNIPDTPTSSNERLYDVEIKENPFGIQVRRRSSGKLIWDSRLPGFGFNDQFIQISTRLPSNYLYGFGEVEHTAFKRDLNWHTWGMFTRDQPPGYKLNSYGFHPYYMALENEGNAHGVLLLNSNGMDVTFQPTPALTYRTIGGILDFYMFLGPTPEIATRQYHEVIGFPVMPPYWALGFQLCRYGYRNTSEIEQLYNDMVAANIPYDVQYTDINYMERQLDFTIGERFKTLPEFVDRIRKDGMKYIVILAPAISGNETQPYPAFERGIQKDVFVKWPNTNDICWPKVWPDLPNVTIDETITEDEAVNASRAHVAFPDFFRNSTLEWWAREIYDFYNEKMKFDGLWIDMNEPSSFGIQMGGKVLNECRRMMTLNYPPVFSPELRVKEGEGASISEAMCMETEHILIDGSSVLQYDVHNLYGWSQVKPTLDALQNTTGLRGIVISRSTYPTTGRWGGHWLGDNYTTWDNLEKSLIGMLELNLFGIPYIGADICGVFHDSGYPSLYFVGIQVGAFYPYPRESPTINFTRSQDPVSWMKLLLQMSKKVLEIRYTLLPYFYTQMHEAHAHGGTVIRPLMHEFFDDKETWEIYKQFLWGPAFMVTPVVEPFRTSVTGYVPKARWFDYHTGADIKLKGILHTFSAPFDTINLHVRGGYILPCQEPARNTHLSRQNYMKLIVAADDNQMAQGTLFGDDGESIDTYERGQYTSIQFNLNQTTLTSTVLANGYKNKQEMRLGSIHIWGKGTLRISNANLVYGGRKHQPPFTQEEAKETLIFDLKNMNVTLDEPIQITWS
# PROCEDURE DETAILS: Inhibition of rat intestinal isomaltase assessed as release of p-nitrophenol using p-nitrophenyl glycoside as substrate by spectrometric assay
Listed here: items and their measured log10 of IC50.
The base-10 logarithm of IC50, taken with IC50 in µM, is what appears here.

Query: Value lookup for log10 of IC50; key = `COc1ccc([C@@]2(CO)NC[C@H](O)[C@H]2O)cc1`
Result: 2.81

Query: Given `C[C@@]1(CO)NC[C@H](O)[C@H]1O` , state its recorded log10 of IC50.
Result: 0.30

Query: Need log10 of IC50, item `CCCC[C@@]1(CO)NC[C@H](O)[C@H]1O`
Result: 1.11

Query: State the recorded log10 of IC50 for this entry: `CCCCCCCCC[C@@]1(CO)NC[C@H](O)[C@H]1O`
Result: 2.05

Query: # log10 of IC50 lookup, item `OC[C@]1(c2ccccc2)NC[C@H](O)[C@H]1O`
Result: 1.51
